Give koff for every item shown.
- subject of test: T1, soluble Homo sapiens CD131 comprising a C-terminal 6xHis tag (human, UniProt P32927 17-438)
- T1 construct: truncated after Ser438, C-terminal 6xHis; also called shCD131; shβc
- T1 sequence: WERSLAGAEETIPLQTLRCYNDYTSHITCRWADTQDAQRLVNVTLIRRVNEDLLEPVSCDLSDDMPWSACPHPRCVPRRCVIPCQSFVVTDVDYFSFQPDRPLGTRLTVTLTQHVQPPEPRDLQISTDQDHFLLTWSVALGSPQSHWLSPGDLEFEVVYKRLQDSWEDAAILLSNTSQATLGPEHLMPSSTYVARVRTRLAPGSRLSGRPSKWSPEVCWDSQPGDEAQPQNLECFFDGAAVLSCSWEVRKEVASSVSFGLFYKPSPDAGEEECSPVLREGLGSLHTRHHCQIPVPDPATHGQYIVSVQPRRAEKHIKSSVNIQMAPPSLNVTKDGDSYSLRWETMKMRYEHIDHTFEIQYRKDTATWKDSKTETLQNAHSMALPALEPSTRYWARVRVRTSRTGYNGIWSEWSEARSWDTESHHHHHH
- assay procedure: SPR, Fab over captured shCD131
- Description: Binding kinetics were measured using SPR with a BIAcore™ A-100 instrument (GE Healthcare Life Sciences). […] shCD131 was captured on spots 1 and 5 of each flow cell for 2 minutes at a concentration of 0.4 μg/ml. […] For some analysis purified Fab was injected over each flow cell for 3 minutes and dissociation was monitored for a further 10 minutes. […] The analysis was performed with Fabs at several concentrations between 100 and 0.31 nM, with each concentration analyzed twice and in random order. […]
Response body: numeric value in s⁻¹, unit text excluded.

Suppose we examine the binder 9A2-VR24.102 Fab (Fab, V domains shown, recombinant Fab) VH: EVQLLESGGGLVQPGGSLRLSCAASGFTFPWYRVHWVRQAPGKGLEWVSSIRSSGGFPFYNSSVKGRFTISRDNSKNTLYLQMNSLRAEDTAVYYCARFYDSFFDIWGQGTMVTVSS VL: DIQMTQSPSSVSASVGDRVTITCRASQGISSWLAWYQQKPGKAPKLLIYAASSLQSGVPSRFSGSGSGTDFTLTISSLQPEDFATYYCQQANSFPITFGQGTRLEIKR ; what koff value has been reported?
0.000556

Param item: 9A2-VR24.111 Fab (Fab, V domains shown, recombinant Fab) VH: EVQLLESGGGLVQPGGSLRLSCAASGFTFPWYRVHWVRQAPGKGLEWVSSIRSSGGFPMYNPHVKGRFTISRDNSKNTLYLQMNSLRAEDTAVYYCARFYDSFFDIWGQGTMVTVSS VL: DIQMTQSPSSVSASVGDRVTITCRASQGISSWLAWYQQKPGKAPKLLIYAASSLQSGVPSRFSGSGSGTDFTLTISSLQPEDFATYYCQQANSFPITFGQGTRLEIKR
0.000637

// same read-out, input: 9A2-VR24.81 Fab (Fab, V domains shown, recombinant Fab) VH: EVQLLESGGGLVQPGGSLRLSCAASGFTFPWYRVHWVRQAPGKGLEWVSSIHTHRNYTYYADSVKGRFTISRDNSKNTLYLQMNSLRAEDTAVYYCARFYDSFFDIWGQGTMVTVSS VL: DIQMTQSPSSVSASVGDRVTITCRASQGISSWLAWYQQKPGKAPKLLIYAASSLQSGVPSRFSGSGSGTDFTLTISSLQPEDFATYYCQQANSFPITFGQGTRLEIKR
0.000492
